measured_on: T1, human Y2 receptor (human, UniProt P49146 1-381)
T1 sequence (looked up): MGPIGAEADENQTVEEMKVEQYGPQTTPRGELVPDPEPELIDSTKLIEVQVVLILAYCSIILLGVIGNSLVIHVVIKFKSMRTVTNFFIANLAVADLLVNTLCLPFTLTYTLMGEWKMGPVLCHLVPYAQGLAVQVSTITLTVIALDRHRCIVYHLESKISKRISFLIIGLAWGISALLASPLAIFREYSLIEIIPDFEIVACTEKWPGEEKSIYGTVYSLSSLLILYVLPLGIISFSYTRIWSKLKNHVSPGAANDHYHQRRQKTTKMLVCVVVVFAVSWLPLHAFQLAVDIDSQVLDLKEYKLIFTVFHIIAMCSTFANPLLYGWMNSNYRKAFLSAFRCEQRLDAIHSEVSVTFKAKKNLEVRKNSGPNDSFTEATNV
experimental_details: cell-based or functional assay
Non-standard residues stand in square brackets, D forms with d. Phe(3-F) = N[C@@H](Cc1cccc(F)c1)C(=O)O; Cha = N[C@@H](CC1CCCCC1)C(=O)O; Aib = CC(C)(N)C(=O)O
outcome_measure: GBA EC50 Ratio (vs PYY(3-36)), [35S]GTPγS (ratio)
Could you give me the number in ratio? Just the number is fine.

Query block: Please report the recorded GBA EC50 Ratio (vs PYY(3-36)), [35S]GTPγS for Ac-S[dP]RH[Cha][Cha]NL[Aib]TRQR[Phe(3-F)]-NH2 (SMILES CC(=O)N[C@@H](CO)C(=O)N1CCC[C@@H]1C(=O)N[C@@H](CCCNC(=N)N)C(=O)N[C@@H](Cc1c[nH]cn1)C(=O)N[C@@H](CC1CCCCC1)C(=O)N[C@@H](CC1CCCCC1)C(=O)N[C@@H](CC(N)=O)C(=O)N[C@@H](CC(C)C)C(=O)NC(C)(C)C(=O)N[C@H](C(=O)N[C@@H](CCCNC(=N)N)C(=O)N[C@@H](CCC(N)=O)C(=O)N[C@@H](CCCNC(=N)N)C(=O)N[C@@H](Cc1cccc(F)c1)C(N)=O)[C@@H](C)O, also called compound No. 195) [Ac-[D-Pro24, Cha27,28, Aib31, Phe(3F)36]-PYY(23-36)] .
Result block: 1.5

Values were extracted from patent US20120172293A1.
